# Target or test system: C-X-C chemokine receptor type 6 (Homo sapiens)
# Sequence (O00574 whole entry): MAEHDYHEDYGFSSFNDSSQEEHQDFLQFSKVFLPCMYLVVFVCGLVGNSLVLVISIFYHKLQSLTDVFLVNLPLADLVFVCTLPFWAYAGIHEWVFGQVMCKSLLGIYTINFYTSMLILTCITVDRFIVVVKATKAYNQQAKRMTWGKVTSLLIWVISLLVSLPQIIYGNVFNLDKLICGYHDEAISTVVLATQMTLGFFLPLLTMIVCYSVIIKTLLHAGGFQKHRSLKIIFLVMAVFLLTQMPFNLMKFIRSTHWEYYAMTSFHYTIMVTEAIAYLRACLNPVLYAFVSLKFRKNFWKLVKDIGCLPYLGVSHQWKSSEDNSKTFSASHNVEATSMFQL
# Measurement notes: Antagonist activity at Prolink-tagged human CXCR6 receptor assessed as inhibition of forskolin-induced cAMP accumulation by DiscoveRx cell based assay
# Type: functional
I'd be grateful if you could share measured pIC50 for these entries.
Give bare numbers, as −log10 of the molar value.

Check out these entries, answers already filled in.
>  <Structure notation>
COc1cc(C(=O)N[C@@H]2C[C@H]3CCC[C@@H](C2)N3CC(=O)Nc2cc(Cl)ccc2Cl)cc(OC)c1OC

>  <Reported>
6.15

$$$$
>  <Structure notation>
COc1cc(C(=O)N[C@@H]2C[C@H]3CCC[C@@H](C2)N3CC(=O)Nc2cccc(C)c2)cc(OC)c1OC

>  <Reported>
4.75

$$$$
>  <Structure notation>
COc1cc(C(=O)N[C@@H]2C[C@H]3CCC[C@@H](C2)N3Cc2ccc3ccccc3n2)cc(OC)c1OC

>  <Reported>
4.39

$$$$

For each entry beneath this line, provide reported pIC50.
1. COc1cc(C(=O)N[C@@H]2C[C@H]3CCC[C@@H](C2)N3CC(=O)Nc2ccccc2F)cc(OC)c1OC
2. COc1cc(C(=O)N[C@@H]2C[C@H]3CCC[C@@H](C2)N3Cc2nc3c(Br)cccc3s2)cc(OC)c1OC

**Result**
1: 5.19; 2: 6.00

Each molecule below has a reported value. Please supply its pIC50.
1. COc1cc(C(=O)N[C@@H]2C[C@H]3CCC[C@@H](C2)N3Cc2ccc(Cl)cc2)cc(OC)c1OC
2. COc1cc(C(=O)N[C@@H]2C[C@H]3CCC[C@@H](C2)N3CC(=O)Nc2ccccc2C#N)cc(OC)c1OC
3. COc1cc(C(=O)N[C@@H]2C[C@H]3CCC[C@@H](C2)N3CC(=O)Nc2ccc(F)cc2)cc(OC)c1OC
4. CCOC(=O)c1ccccc1NC(=O)CN1[C@@H]2CCC[C@H]1C[C@H](NC(=O)c1cc(OC)c(OC)c(OC)c1)C2
5. COc1cc(C(=O)N[C@@H]2C[C@H]3CCC[C@@H](C2)N3CC(=O)Nc2ccccc2Br)cc(OC)c1OC
6. COc1cc(C(=O)N[C@@H]2C[C@H]3CCC[C@@H](C2)N3Cc2nc3c(C)cccc3s2)cc(OC)c1OC

**Result**
1: 4.41; 2: 5.15; 3: 4.51; 4: 5.16; 5: 6.05; 6: 5.32

Reported pIC50 ( COc1cc(C(=O)N[C@@H]2C[C@H]3CCC[C@@H](C2)N3CC(=O)Nc2cc(C)ccc2C)cc(OC)c1OC ) = 4.78

###

# Target or test system: C-X-C chemokine receptor type 6 (Homo sapiens)
# Measurement notes: Antagonist activity at Prolink-tagged human CXCR6 receptor assessed as inhibition of CXCL16-induced beta-arrestin recruitment by DiscoveRx cell based assay
pIC50: −log10 of the molar value.
Kindly supply the reported pIC50 values for the records listed here.

>  <Structure notation>
COc1cc(C(=O)NC2CCN(CC(=O)Nc3ccccc3)CC2)cc(OC)c1OC

>  <pIC50>
< 4.40

$$$$
>  <Structure notation>
COc1cc(C(=O)N[C@@H]2C[C@H]3CCC[C@@H](C2)N3Cc2cn3ccccc3n2)cc(OC)c1OC

>  <pIC50>
< 4.30

$$$$

For every listed record, write down its pIC50.
1. COc1cc(C(=O)N[C@@H]2C[C@H]3CCC[C@@H](C2)N3CC(=O)Nc2c(C)cccc2C)cc(OC)c1OC
2. COc1ccc(C(=O)N[C@@H]2C[C@H]3CCC[C@@H](C2)N3CC(=O)Nc2ccc(Cl)cc2)cc1OC

**Result**
< 4.40
< 4.40
